- assay_system: Adenosine receptor A1 (Rattus norvegicus, UniProt P25099)
- Sequence (P25099 whole entry): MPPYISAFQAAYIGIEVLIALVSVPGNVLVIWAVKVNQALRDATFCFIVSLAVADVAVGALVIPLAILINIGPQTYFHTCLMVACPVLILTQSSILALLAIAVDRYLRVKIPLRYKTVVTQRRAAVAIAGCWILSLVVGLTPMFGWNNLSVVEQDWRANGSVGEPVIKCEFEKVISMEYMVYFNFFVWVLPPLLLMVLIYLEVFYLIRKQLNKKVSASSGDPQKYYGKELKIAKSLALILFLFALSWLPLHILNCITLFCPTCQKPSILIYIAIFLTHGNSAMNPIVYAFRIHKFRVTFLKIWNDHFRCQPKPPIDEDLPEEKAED
Listed below are compounds with pKi for Adenosine receptor A1 (Rattus norvegicus, UniProt P25099), each taken from published literature.
Numbers only, as −log10 of the molar value.

{"compound": "O=C(Nc1nc(-c2ccccc2)ns1)c1ccc(Cl)cc1", "assay_system": "Adenosine receptor A1 (Rattus norvegicus, UniProt P25099)", "pKi": 7.39}
{"compound": "CCNC(=O)[C@H]1OC(n2cnc3c(N)nc(C#Cc4cccnc4)nc32)[C@H](O)[C@@H]1O (some centres undefined)", "assay_system": "Adenosine receptor A1 (Rattus norvegicus, UniProt P25099)", "pKi": 6.86}
{"compound": "COc1cc(O)c2c(c1)OC(c1ccc(O)cc1)CC2=O (centres undefined)", "assay_system": "Adenosine receptor A1 (Rattus norvegicus, UniProt P25099)", "pKi": 5.09}
{"compound": "COC(=O)CCC(=O)Nc1nc2ccc(Cl)cc2c2nc(-c3ccco3)nn12", "assay_system": "Adenosine receptor A1 (Rattus norvegicus, UniProt P25099)", "pKi": 7.14}
{"compound": "O=C(Nc1nc(-c2ccccc2)nc2c1nnn2Cc1ccccc1)c1ccoc1", "assay_system": "Adenosine receptor A1 (Rattus norvegicus, UniProt P25099)", "pKi": 8.00}

For each listed entry, give its pKi.
1. O=S(=O)(O)CCNc1ncnc2c1ncn2C1O[C@H](CO)[C@@H](O)[C@H]1O (some centres undefined)
2. Cn1c(=O)c2c(nc3n2CCCN3CCc2ccc(O)cc2)n(C)c1=O

7.39
4.60

====

Literature compilation of pKi measurements on Adenosine receptor A1 (Rattus norvegicus, UniProt P25099).
Answers are plain numbers, as −log10 of the molar value.

# return pKi for each item in the list
1. C=CCSc1sc(C(=O)OCC)c2c1C(=O)CCC2
2. CCNC(=O)[C@H]1O[C@@H](n2cnc3c(NC(=O)NCCc4ccccc4)ncnc32)[C@H](O)[C@@H]1O
3. O=C(Nc1nc(-c2ccccc2)nc2c1nnn2Cc1ccccc1)C1CC1
4. CCCOc1ccc2c(c1)C(Nc1ncnc3c1ncn3[C@@H]1O[C@H](CO)[C@@H](O)[C@H]1O)CCC2 (stereo not given in full)
5. CSCCn1c(=O)c2[nH]c(Cc3c(F)cccc3F)nc2n(Cc2ccco2)c1=O
6. O=C(/C=C/c1ccccc1)Nc1nc2ccc(Cl)cc2c2nc(-c3ccco3)nn12
7. O=C(Nc1nc(-c2ccccc2)ns1)c1ccccc1
8. CN1C(=O)N2CCN=C2c2c1ncn2C

[5.97, 6.89, 8.12, 6.30, 6.70, 6.55, 7.51, 4.10]

For each of the items listed, what is its pKi?
1. OC[C@H]1O[C@@H](n2cnc3c(NC4CCOc5ccccc54)ncnc32)[C@H](O)[C@@H]1O (stereo not given in full)
2. COc1cc(OC)cc(C(CNc2nc(Nc3ccccc3)nc3c2ncn3C2O[C@H](CO)[C@@H](O)[C@H]2O)c2ccccc2C)c1 (stereo not given in full)
3. CCNC(=O)[C@H]1O[C@@H](n2cnc3c(NC(=O)Nc4ccc(OC)cc4)nc(I)nc32)[C@H](O)[C@@H]1O
4. CC(C)Cn1c(=O)n(C)c(=O)c2c1ncn2Cc1ccccc1
5. Nc1nc(NCCN2CCN(c3ccc(F)cc3F)CC2)cc2nc(-c3ccco3)nn12
6. CC1(Nc2ncnc3c2ncn3C2O[C@H](CO)[C@@H](O)[C@H]2O)CCCCC1 (stereo not given in full)

1: 7.20; 2: 4.99; 3: 7.53; 4: 5.16; 5: 5.59; 6: 7.15

List reported pKi for each of these compounds:
1. O[C@@H]1[C@H](O)[C@@H]2C[C@@H]2[C@H]1n1cnc2c(NC3CCCCC3)nc(Cl)nc21
2. CCNC(=O)[C@H]1O[C@@H](n2cnc3c(NC(=O)Nc4ccccc4C(F)(F)F)ncnc32)[C@H](O)[C@@H]1O
3. OC[C@H]1OC(n2cnc3c(NC4CC5CCC4C5)nc(O)nc32)[C@H](O)[C@@H]1O (stereo not given in full)

1. 9.05
2. 6.42
3. 7.46

Hey, can you go through the list below and give me pKi for every item?
1. Nc1nc2c(nnn2Cc2ccccc2)c2nc(-c3ccco3)nn12
2. COc1ccc(C(=O)Nc2nc(-c3ccccc3)nc3c2nnn3Cc2ccccc2)cc1
3. Cn1cnc2c1C1=NCCN1C(=O)N2

[8.21, 7.55, 4.18]
